This collection of values is drawn from ChEMBL document CHEMBL3433997.

molecular target: Solute carrier family 2, facilitated glucose transporter member 1 (Homo sapiens) (UniProt P11166); experiment: ST_JUDE_LEISH: Cytotoxicity at 2uM final concentration against transgenic Leishmania Mexicana promastigotes LmGLUT1 that are glucose transport deficient and complemented with the human glucose transporter GLUT1. Activity is measured by DNA content using SYBR green in vitro; assay type: functional
Sequence (P11166 whole entry): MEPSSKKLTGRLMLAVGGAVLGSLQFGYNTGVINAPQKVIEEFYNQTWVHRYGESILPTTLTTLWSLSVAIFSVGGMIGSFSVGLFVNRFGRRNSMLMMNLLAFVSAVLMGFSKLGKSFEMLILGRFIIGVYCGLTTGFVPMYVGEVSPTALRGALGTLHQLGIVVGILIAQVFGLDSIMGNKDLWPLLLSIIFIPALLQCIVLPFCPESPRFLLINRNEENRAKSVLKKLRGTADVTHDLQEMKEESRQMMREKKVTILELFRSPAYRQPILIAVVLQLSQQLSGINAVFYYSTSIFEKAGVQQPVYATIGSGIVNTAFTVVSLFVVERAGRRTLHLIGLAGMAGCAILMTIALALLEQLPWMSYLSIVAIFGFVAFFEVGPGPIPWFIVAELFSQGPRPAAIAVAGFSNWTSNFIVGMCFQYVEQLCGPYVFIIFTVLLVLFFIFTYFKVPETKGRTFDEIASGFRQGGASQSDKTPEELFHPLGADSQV
Each record here notes measured inhibition.
Output spec: scalar in %, unitless text.

In the examples that follow, each entry is paired with its recorded inhibition.
INSERT INTO measurements (molecule, display_unit, test_result) VALUES
  ('CCCCN(CCCC)CCCN(CCCN(CCCC)CCCC)c1cc(C)nc(Nc2ccc(Cl)cc2)n1', '%', -0.03),
  ('COc1ccc(CN(C)Cc2cc(C(C)C)c(C)cc2O)cc1F', '%', 2.07),
  ('Cc1cccc(CCNC(=O)c2cc(Br)cc(N3CCN(c4ccncc4)CC3)c2)c1', '%', 0.72),
  ('Cc1cc(OCCCN2CCCCC2)ccc1NC(=O)COc1ccc(Cl)cc1C(=O)c1cc(C#N)cc(C(F)(F)F)c1', '%', 4.63),
  ('O=C(/C=C/c1ccc(Cl)c(Cl)c1)NCCCCCN1CCC(CCNC(=O)Cc2ccc(Cl)cc2)CC1', '%', 1.7);

Determine its reported inhibition: Nc1nccc2ccc(-c3ccsc3)cc12
5.2

Determine its reported inhibition: COc1ccc2nccc([C@@H](O)CN3CCC(NC(=O)C(=O)c4c[nH]c5c(C)cccc45)CC3)c2c1
0.46
